These data points were gathered from paper PMC5540273.

Test system: MAP4K5
Condition Context: concentration: 1 μM, replicates: in singlicate; n = 1;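 also: KINOMEscan kinase panel screen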
Field: %Inh. Provide a value for each of the compounds that follow.
Give bare numbers, in %.

>>> value("CNc1nc(-c2ccc3c(N)n[nH]c3c2)cc(N2C[C@@H](C(=O)NC3CCCCC3)OC[C@H]2C)n1 [GSK2375584]")
9
>>> value("COC(=O)C(NC(=O)NC1CCN(c2ccnc(Nc3ccc(F)cc3)n2)C1)c1ccccc1 (stereo not drawn) [GSK1379712]")
2
>>> value("NS(=O)(=O)c1cccc(N/C=C2\\C(=O)Nc3ccc(S(=O)(=O)Cc4c(Cl)cccc4Cl)cc32)c1 [GSK398099]")
0
>>> value("O=C1NC(=O)C(c2ccc(Cl)cc2)=C1Nc1cccc(Cl)c1 [SB-317651]")
0
>>> value("CNc1cc(-c2ccc3c(N)n[nH]c3c2)nc(N)n1 [GSK2224810]")
0

Below are 4 compounds. Give each one its %Inh.
1. O=C(Nc1n[nH]c2cc(-c3ccsc3)ccc12)C1CC1 [SB-732932]
2. COc1cccc(NC(=O)Nc2ccc(C)c(-c3ccc(C(=O)Nc4ccncc4)cc3)c2)c1 [GSK1398474]
3. CNCc1ccc2nc(NC(=O)c3ccc(C(C)(C)C)cc3)cn2c1
4. Cc1ccccc1-c1cc(-c2c[nH]nc2-c2ccccn2)ccn1 [GW680061]

Ans.
1: 2; 2: 16; 3: 0; 4: 0

---

System: DLK
Construct: gene MAP3K12
Condition Context: concentration: 1 μM, replicates: in singlicate; n = 1
Property Measured: %Inh (%)
Answers are plain numbers, in %.

Can you give me %Inh for all of these, one by one?
1. CCn1c(-c2ccccc2)nc2cnccc21
2. COc1ccc(CSc2nnc(-c3ccc4nccn4c3)o2)cc1C(F)(F)F
3. CNc1nc(-c2ccc3c(N)n[nH]c3c2)cc(N2C[C@@H](C(=O)Nc3ccccc3)CC[C@H]2C)n1
4. Fc1ccc(-c2nc[nH]c2-c2ccncc2)cc1
5. Cc1c(Cn2c3ccccc3n3c(=O)cc(N4CCOCC4)nc23)cccc1C(F)(F)F
6. CC[C@@H]1CO[C@H](C(=O)Nc2ccccc2)CN1c1cc(-c2ccc3c(N)n[nH]c3c2)nc(NC)n1
7. COc1ccc(Nc2nccc(N3CCC(NC(=O)C(C)c4ccc(Cl)cc4)CC3)n2)cc1 (stereo not drawn)
8. CC(=O)c1c(C)c2cnc(Nc3ccn(C)n3)nc2n(C2CCCC2)c1=O

Ans.
16
0
11
0
0
0
0
64

Qu. Return reported %Inh; argument: COC(=O)c1cccc(NC(=O)NC2CCN(c3ccnc(Nc4ccc(F)cc4)n3)C2)c1 (stereo not drawn)
Ans. 0

---

Assign %Inh to each entry below.
Test system: PIKFYVE
Condition Context: concentration: 1 μM, replicates: in singlicate; n = 1
Answers are plain numbers, in %.

Example results:
>>> value("CC(=O)c1c(C)c2cnc(Nc3ccn(C)n3)nc2n(C2CCCC2)c1=O")
9
>>> value("Nc1cccc(-c2ccc3c(N)n[nH]c3c2)n1")
0
>>> value("Fc1ccc(-c2nn3cccc(F)c3c2-c2ccncc2)cc1")
28

Hi team, please reply with %Inh for each item in this list.
1. CC[C@@H]1CO[C@H](C(=O)Nc2ccccc2)CN1c1cc(-c2ccc3c(N)n[nH]c3c2)nc(NC)n1
2. Fc1ccc(-c2nc3n(c2-c2ccncc2)CCS3)cc1
3. COc1ccc(Nc2nccc(N3CCC(NC(=O)C(C)c4ccc(Cl)cc4)C3)n2)cc1 (stereo not drawn)
4. Cc1cccc2c(-c3ccncn3)c(-c3ccc(F)cc3)nn12
5. CC(C)c1cc(-c2ccc3c(N)n[nH]c3c2)nc(N)n1
6. CC(=O)c1cccc(NC(=O)NC2CCN(c3ccnc(Nc4ccc(F)cc4)n3)C2)c1 (stereo not drawn)
7. COc1nccc(-c2c(-c3ccc(F)cc3)ncn2CCCN2CCOCC2)n1

Ans.
0
0
0
22
0
25
37

For every item below, please supply its %Inh.
1. COc1cc2ncnc(Nc3cccc(Br)c3)c2cc1OC.Cl
2. O=C1NC(=O)C(c2ccc(Cl)cc2)=C1Nc1ccc(O)cc1
3. CC(C)c1ccc(O)cc1Nc1ccnc2ccc(C(F)(F)F)cc12
4. Nc1nccc(-c2c(-c3ccc(F)cc3)ncn2C2CCN(Cc3ccccc3)CC2)n1

Ans.
[32, 9, 1, 6]

Provide %Inh values for the following items, in order.
1. O=c1cc(N2CCOCC2)nc2n(Cc3ccccc3F)ccn12
2. CS(=O)(=O)Cc1ccc(Nc2nccc(-c3c(-c4cccc(NC(=O)C5CCCCC5)c4)nn4ncccc34)n2)cc1
3. Cn1cncc1C(=O)NC1CCN(c2ccnc(Nc3ccc(F)cc3)n2)C1 (stereo not drawn)

Ans.
1. 0
2. 2
3. 0

// for each molecule in input: emit %Inh
1. CCCCc1nn2ncccc2c1-c1ccnc(NC2CC2)n1
2. c1ccc(-c2ccnc3[nH]ccc23)cc1
3. COc1cccc(CNC(=O)NC2CCN(c3ccnc(Nc4ccc(F)cc4)n3)C2)c1 (stereo not drawn)
4. CSc1ccc(-c2nc3n(c2-c2ccncc2)CCC3)cc1

Ans.
1. 0
2. 11
3. 9
4. 11

---

Tested on: PRKCD
Condition Context: concentration: 1 μM, replicates: in singlicate; n = 1
Provide the reported %Inh of each item.
Numbers only, in %.

Examples from the recorded data:
>>> value("CCn1c(-c2c(N)noc2C)nc2cnccc21")
0
>>> value("Cc1ccc(NC(=O)Nc2ccc(Cl)c(C(F)(F)F)c2)cc1-c1ccc(C(=O)Nc2ccncc2)cc1")
0
>>> value("CN1c2ccc(-c3ccc(C(N)=O)cc3)cc2-c2[nH]ncc2S1(=O)=O")
3
>>> value("CNc1cc(-c2ccc3c(N)n[nH]c3c2)nc(N)n1")
0
>>> value("Cc1cccc2c(-c3ccncn3)c(-c3ccc(F)cc3)nn12")
5

Return reported %Inh values for all items listed beneath this line.
1. CS(=O)(=O)CCNCc1nc(-c2ccc3ncnc(Nc4ccc(OCc5ccccc5)c(Cl)c4)c3c2)cs1.Cl
2. Cc1ccc(NC(=O)Nc2ccccc2)cc1-c1ccc(C(=O)Nc2ccncc2)cc1

Ans.
1: 0; 2: 0

For each listed entry, give its %Inh.
1. c1ccc(-c2ccnc3[nH]ccc23)cc1
2. CS(=O)(=O)Cc1ccc(Nc2nccc(-c3c(-c4cccc(NC(=O)C5CCCCC5)c4)nn4ncccc34)n2)cc1

Ans.
0
0

---

Tested on: MERTK
Condition Context: concentration: 1 μM, replicates: in singlicate; n = 1
Assign %Inh to each entry below.
Answers are plain numbers, in %.

>>> value("O=c1cc(N2CCOCC2)nc2n(Cc3ccccc3F)ccn12")
42

// batch mode: one %Inh value per listed entry
1. COC(=O)C(Cc1ccccc1)NC(=O)NC1CCN(c2ccnc(Nc3ccc(F)cc3)n2)C1 (stereo not drawn)
2. COc1ccc(Nc2nccc(N3CCC(NC(=O)c4cc5ccccc5s4)C3)n2)cc1 (stereo not drawn)
3. Cc1ccccc1-c1cc(-c2c[nH]nc2-c2ccccn2)ccn1
4. Cn1cncc1-c1cc2c(Nc3ccc(OCc4ccccc4)cc3)ncnc2cn1
5. O=C(Nc1n[nH]c2cc(-c3ccsc3)ccc12)C1CC1
6. O=C(Nc1n[nH]c2nc(-c3cccs3)c(Br)cc12)C1CC1
7. Cc1c(Cn2c3ccccc3n3c(=O)cc(N4CCOCC4)nc23)cccc1C(F)(F)F
8. COc1ccc2cc(-c3nc(-c4ccccc4C(C)C)[nH]c3-c3ccncc3)ccc2c1

Ans.
1. 0
2. 0
3. 16
4. 0
5. 14
6. 15
7. 33
8. 33

---

System: MLCK
Construct: gene MYLK3
Condition Context: concentration: 1 μM, replicates: in singlicate; n = 1
Consider the following molecules; for each one, report its %Inh.
Give bare numbers, in %.

Below: 6 molecules and their reported %Inh.
>>> value("Cc1c(Cn2c(C)c(C)n3c(=O)cc(N4CCOCC4)nc23)cccc1C(F)(F)F")
0
>>> value("CN1c2ccc(-c3ccc(C(N)=O)cc3)cc2-c2[nH]ncc2S1(=O)=O")
0
>>> value("COc1ccc(Nc2nccc(N3CCC(NC(=O)C(C)c4ccc(Cl)cc4)CC3)n2)cc1 (centres unmarked)")
0
>>> value("Fc1ccc(-c2nc3n(c2-c2ccncc2)CCS3)cc1")
15
>>> value("NS(=O)(=O)c1cccc(N/C=C2\\C(=O)Nc3ccc(S(=O)(=O)Cc4c(Cl)cccc4Cl)cc32)c1")
0
>>> value("O=C(Nc1n[nH]c2cc(-c3ccsc3)ccc12)C1CC1")
65

Hi, could you look up %Inh for each item in my list?
1. COc1ccc(Nc2nccc(N3CCC(NC(=O)C(C)c4ccc(Cl)cc4)C3)n2)cc1 (centres unmarked)
2. CS(=O)(=O)CCNCc1nc(-c2ccc3ncnc(Nc4ccc(OCc5ccccc5)c(Cl)c4)c3c2)cs1.Cl
3. COc1cc2ncnc(Nc3cccc(Br)c3)c2cc1OC.Cl
4. COc1ccc(Nc2nccc(-c3ccc(NC(=O)c4cc5cc(F)ccc5[nH]4)cc3)n2)cc1

Ans.
1: 14; 2: 89; 3: 19; 4: 0
